Data origin, for the record: ChEMBL document CHEMBL6134895

test: Oral bioavailability in female C57BL/6 mouse at 20 mg/kg; format: ADME, organism-based; conditions: in vivo
metric_name: bioavailability (%)
Quick reminder: number only, in %, skip the unit.

What value of measured bioavailability is listed for Cc1ccc(Cn2c(CSc3c(C)cc(C)cc3C)c(C(=O)N3CCC(N4CCOCC4)CC3)c3cc(O)c(Br)cc32)cc1 ?
33.9

====

assay: Stability in human plasma assessed as compound remaining at 2 uM measured after 60 mins by LC-MS/MS analysis; assay type: ADME, cell-free; settings: read-out: Stability
Please note: remaining at 1 h, 2 µM exactly at 70% is no (0). Only values below 70% get yes (1).

Worked cases, answers included:
Consider the compound Cc1ccc(Cn2c(CSc3c(C)cc(C)cc3C)c(C(=O)N3CCC(N4CCOCC4)CC3)c3cc(O)c(Br)cc32)cc1 . Is its remaining at 1 h, 2 µM strictly less than 70%?
yes (1)

Determine if CCOC(=O)c1c(CSc2c(C)cc(C)cc2C)n(Cc2ccc(C)cc2)c2cc(Br)c(O)cc12 shows remaining at 1 h, 2 µM strictly lower than 70%.
no (0)

Does Cc1ccc(Cn2c(CSc3c(C)cc(C)cc3C)c(C(=O)Nc3cnn(C)c3)c3cc(O)c(Br)cc32)cc1 have remaining at 1 h, 2 µM strictly under 70%?
yes (1)

Find out if reported remaining at 1 h, 2 µM for CC(C)[N+](C)(CCOC(=O)C1c2ccccc2Oc2ccccc21)C(C)C is less than 70%
yes (1)

A record lists Cc1ccc(Cn2c(CSc3c(C)cc(C)cc3C)c(C(=O)NC3CCN(C(C)C)CC3)c3cc(O)c(Br)cc32)cc1 . Is its remaining at 1 h, 2 µM below 70%?
yes (1)

Next item in the queue.
Could you please tell me whether remaining at 1 h, 2 µM recorded for Cc1ccc(Cn2c(CSc3c(C)cc(C)cc3C)c(C(=O)NC(C)(C)C)c3cc(O)c(Br)cc32)cc1 is less than 70%?
no (0)

====

experiment: Lipophilicity, LogD of compound in sodium phosphate buffer/n-octanol incubated for 3 hrs by LC-UV analysis; assay type: physicochemical
metric_name: logD at 3 h
// print number alone

So what does the record say about logD at 3 h for CCOC(=O)c1c(CSc2ccc(C)cc2C)n(Cc2cccc3ccccc23)c2cc(Br)c(O)cc12 ?
3.76

Record request: logD at 3 h value, item Cc1ccc(Cn2c(CSc3c(C)cc(C)cc3C)c(C(=O)Nc3cnn(C)c3)c3cc(O)c(Br)cc32)cc1
1.93

What value of logD at 3 h has been recorded for this entry: Cc1ccc(Cn2c(CSc3c(C)cc(C)cc3C)c(C(=O)NC(C)(C)C)c3cc(O)c(Br)cc32)cc1
3.54

Item CCOC(=O)c1c(CSc2c(C)cc(C)cc2C)n(Cc2ccc(C)cc2)c2cc(Br)c(O)cc12 has what recorded logD at 3 h?
3.03

Which logD at 3 h reading was recorded for the compound CCOC(=O)c1c(CSc2ccc(C)cc2C)n(Cc2ccc(C)cc2)c2cc(Br)c(O)c(CN(C)C)c12 ?
3.98

Query (compound): CN(C)CCCCNC(=O)c1c(CSc2ccc(F)cc2)n(C)c2cc(Br)c(O)cc12 ; field requested: logD at 3 h
1.91

Query (compound): Cc1ccc(Cn2c(CSc3c(C)cc(C)cc3C)c(C(=O)NC3CCN(C(C)C)CC3)c3cc(O)c(Br)cc32)cc1 ; field requested: logD at 3 h
3.95

Others:
Reported logD at 3 h for Cc1ccc(Cn2c(CSc3c(C)cc(C)cc3C)c(C(=O)N3CCC(N4CCOCC4)CC3)c3cc(O)c(Br)cc32)cc1 : what is it?
2.45

====

biological target: Voltage-gated inwardly rectifying potassium channel KCNH2 (Homo sapiens, UniProt Q12809); experiment: Inhibition of hERG extracted from membrane (unknown origin) incubated for 4 hrs by fluorescence polarization assay; type: toxicity, cell membranes
Sequence (Q12809 whole entry): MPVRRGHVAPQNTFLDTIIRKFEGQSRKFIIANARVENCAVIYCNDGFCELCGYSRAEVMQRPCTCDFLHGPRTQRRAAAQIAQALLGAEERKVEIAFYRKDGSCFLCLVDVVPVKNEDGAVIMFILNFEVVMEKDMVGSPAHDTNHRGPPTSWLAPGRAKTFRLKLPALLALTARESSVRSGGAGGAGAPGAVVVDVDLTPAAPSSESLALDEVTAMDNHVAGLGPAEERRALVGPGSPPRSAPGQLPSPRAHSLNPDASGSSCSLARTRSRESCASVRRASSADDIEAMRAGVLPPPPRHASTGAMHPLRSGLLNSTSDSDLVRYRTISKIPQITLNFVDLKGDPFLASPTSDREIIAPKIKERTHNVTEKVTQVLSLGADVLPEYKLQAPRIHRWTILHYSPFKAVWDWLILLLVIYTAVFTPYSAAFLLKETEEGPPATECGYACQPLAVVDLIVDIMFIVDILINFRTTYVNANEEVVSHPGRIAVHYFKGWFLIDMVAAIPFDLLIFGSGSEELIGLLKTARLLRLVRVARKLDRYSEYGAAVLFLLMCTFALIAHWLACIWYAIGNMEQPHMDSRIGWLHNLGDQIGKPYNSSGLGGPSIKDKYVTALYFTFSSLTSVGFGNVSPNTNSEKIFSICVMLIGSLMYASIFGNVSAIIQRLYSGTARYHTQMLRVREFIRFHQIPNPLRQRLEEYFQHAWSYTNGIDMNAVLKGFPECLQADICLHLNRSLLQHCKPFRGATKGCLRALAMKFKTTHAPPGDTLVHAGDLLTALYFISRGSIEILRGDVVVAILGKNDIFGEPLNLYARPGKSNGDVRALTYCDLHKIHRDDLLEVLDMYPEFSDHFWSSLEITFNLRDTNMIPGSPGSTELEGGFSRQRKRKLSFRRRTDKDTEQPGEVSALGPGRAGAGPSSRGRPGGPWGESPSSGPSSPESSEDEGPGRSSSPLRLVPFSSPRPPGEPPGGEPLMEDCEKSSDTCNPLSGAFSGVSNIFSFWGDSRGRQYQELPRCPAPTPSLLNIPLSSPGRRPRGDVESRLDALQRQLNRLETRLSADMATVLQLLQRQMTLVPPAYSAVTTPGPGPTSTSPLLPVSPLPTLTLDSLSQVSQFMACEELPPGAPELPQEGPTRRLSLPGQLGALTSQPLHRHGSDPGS
With a cut-off of 10 µM, any IC50 strictly below it is called true (1); any IC50 meeting it or above is called false (0).

Solved entries:
Does CCOC(=O)c1c(CSc2ccc(C)cc2C)n(Cc2cccc3ccccc23)c2cc(Br)c(O)cc12 have IC50 strictly under 10 µM?
false (0)

Field: below-cutoff. Rule: recorded IC50 strictly less than 10 µM. Subject: CCOC(=O)c1c(CSc2ccccc2)n(Cc2ccc(F)cc2)c2cc(Br)c(O)cc12
false (0)

# strict comparison: is reported IC50 < 10 µM? input = CCOC(=O)c1c(CSc2c(C)cc(C)cc2C)n(Cc2ccc(C)cc2)c2cc(Br)c(O)c(CN(C)C)c12
true (1)

Next:
In the record for Cc1ccc(Cn2c(CSc3c(C)cc(C)cc3C)c(C(=O)Nc3cnn(C)c3)c3cc(O)c(Br)cc32)cc1 , is IC50 less than 10 µM?
false (0)

Consider CCOC(=O)c1c(CSc2ccc(C)cc2C)n(Cc2ccc(C)cc2)c2cc(Br)c(O)cc12 . Does its IC50 lie strictly below 10 µM?
false (0)

Report whether reported IC50 is lower than 10 µM (strictly) for CCOC(=O)c1c(CSc2ccccc2)n(C)c2cc(Br)c(O)c(CN(C)C)c12 [UMIFENOVIR]
true (1)

Is IC50 strictly under 10 µM for the entry Cc1ccc(Cn2c(CSc3c(C)cc(C)cc3C)c(C(=O)NC3CCN(C(C)C)CC3)c3cc(O)c(Br)cc32)cc1 ?
false (0)

In plain terms, does CCOC(=O)c1c(CSc2c(C)cc(C)cc2C)n(Cc2ccc(C)cc2)c2cc(Br)c(O)cc12 come in under 10 µM for IC50?
false (0)

Decide: IC50 of Cn1c(CSc2ccccc2)c(C(=O)N2CCC(N3CCOCC3)CC2)c2cc(O)c(Br)cc21 strictly below 10 µM?
false (0)

Please let me know if CC(C)N1CCC(NC(=O)c2c(CSc3ccccc3)n(C)c3cc(Br)c(O)cc23)CC1 shows IC50 below 10 µM.
true (1)

Check if IC50 falls below 10 µM for CCOC(=O)c1c(CSc2ccc(C)cc2C)n(C)c2cc(Br)c(O)c(CN(C)C)c12 .
true (1)

Regarding Cn1c(CSc2ccc(F)cc2)c(C(=O)Nc2cc[nH]n2)c2cc(O)c(Br)cc21 , kindly confirm whether its IC50 is beneath 10 µM.
false (0)

Record CC(C)N1CCN(C(=O)c2c(CSc3ccccc3)n(C)c3cc(Br)c(O)cc23)CC1 : is its IC50 strictly below 10 µM?
true (1)

Hi there! Is IC50 for CCOC(=O)c1c(CSc2ccc(C)cc2C)n(Cc2ccc(C)cc2)c2cc(Br)c(O)c(CN(C)C)c12 below 10 µM, do you know?
true (1)

Item Cc1ccc(Cn2c(CSc3c(C)cc(C)cc3C)c(C(=O)N3CCC(N4CCOCC4)CC3)c3cc(O)c(Br)cc32)cc1 : IC50 beneath 10 µM, strictly?
false (0)

Please check: IC50 for Cc1ccc(Cn2c(CSc3c(C)cc(C)cc3C)c(C(=O)NC(C)(C)C)c3cc(O)c(Br)cc32)cc1 , strictly under 10 µM or not?
false (0)

====

test: Volume of distribution at steady state in female C57BL/6 mouse at 2 mg/kg, iv; format: ADME, organism-based; conditions: in vivo, read-out: Vdss
metric_name: Vd (L/kg)
Kindly answer with a numeric value in L/kg, unit omitted.

Query (compound): Cc1ccc(Cn2c(CSc3c(C)cc(C)cc3C)c(C(=O)N3CCC(N4CCOCC4)CC3)c3cc(O)c(Br)cc32)cc1 ; field requested: Vd
13.4

====

test: Stability in mouse plasma assessed as half life at 2 uM measured up to 120 mins by LC-MS/MS analysis; assay type: ADME, cell-free
metric_name: half-life at 2 µM

Quick one: half-life at 2 µM for CCOC(=O)c1c(CSc2c(C)cc(C)cc2C)n(Cc2ccc(C)cc2)c2cc(Br)c(O)cc12 ?
> 2 h

Others:
Item Cc1ccc(Cn2c(CSc3c(C)cc(C)cc3C)c(C(=O)N3CCC(N4CCOCC4)CC3)c3cc(O)c(Br)cc32)cc1 has what recorded half-life at 2 µM?
0.892 h

Given the compound CC(C)[N+](C)(CCOC(=O)C1c2ccccc2Oc2ccccc21)C(C)C [PROPANTHELINE] , what is its reported half-life at 2 µM?
0.868 h

Fill blank: measured half-life at 2 µM of the compound Cc1ccc(Cn2c(CSc3c(C)cc(C)cc3C)c(C(=O)NC(C)(C)C)c3cc(O)c(Br)cc32)cc1 is ____.
> 2 h

Would you mind telling me what half-life at 2 µM value was observed for CCOC(=O)c1c(CSc2ccc(C)cc2C)n(Cc2ccc(C)cc2)c2cc(Br)c(O)c(CN(C)C)c12 ?
> 2 h

Suppose we examine the compound CN(C)CCCCNC(=O)c1c(CSc2ccc(F)cc2)n(C)c2cc(Br)c(O)cc12 ; what half-life at 2 µM value has been reported?
1 h

Quick one: half-life at 2 µM for CCOC(=O)c1c(CSc2ccc(C)cc2C)n(Cc2cccc3ccccc23)c2cc(Br)c(O)cc12 ?
3 h

Param item = Cc1ccc(Cn2c(CSc3c(C)cc(C)cc3C)c(C(=O)NC3CCN(C(C)C)CC3)c3cc(O)c(Br)cc32)cc1 ; retrieve measured half-life at 2 µM.
> 4 h

Can you share its half-life at 2 µM? I mean this compound: Cc1ccc(Cn2c(CSc3c(C)cc(C)cc3C)c(C(=O)Nc3cnn(C)c3)c3cc(O)c(Br)cc32)cc1
0.87 h
